Ref: patent US9650340B2

system: B16F10, mouse melanoma cells; test: Proliferation assay, B16F10 (crystal violet); assay type: cell-based; conditions: Mus musculus, B16-F10, 96 h, B16F10, 4 days; read-out: Inhibition of B16F10 cell proliferation IC50
pIC50: −log10 of the molar value.
READOUT_TYPE: pIC50

The examples below pair each entry with its known result.
{"COMPOUND": "CCOc1cc(F)ccc1-c1cc(Nc2cc(CS(C)(=O)=NC(=O)C(F)(F)F)cc(F)n2)ncc1F (racemic)", "pIC50": 6.82}
{"COMPOUND": "CCS(=N)(=O)Cc1ccnc(Nc2cc(-c3ccc(F)cc3OC)c(F)cn2)c1 (racemic)", "pIC50": 6.92}
{"COMPOUND": "COc1cc(F)ccc1-c1cc(Nc2cc(CS(C)(=N)=O)cc(Cl)n2)ncc1F (racemic)", "pIC50": 7.47}
{"COMPOUND": "CCNC(=O)N=S(C)(=O)Cc1ccnc(Nc2cc(-c3ccc(F)cc3OC)c(F)cn2)c1 (racemic)", "pIC50": 6.89}
{"COMPOUND": "COc1cc(F)ccc1-c1cc(Nc2cc(CS(C)(=O)=NC(=O)C(F)(F)F)cc(C(F)(F)F)n2)ncc1F (single isomer, unassigned; (+))", "pIC50": 7.37}

a = COc1cc(F)ccc1-c1cc(Nc2cc(CS(C)(=N)=O)cc(C(F)(F)F)n2)ncc1F (single isomer, unassigned; (+)) [Example 22]
b = COc1cc(F)ccc1-c1cc(Nc2cc(CS(C)(=N)=O)cc(C)n2)ncc1F (racemic) [Example 4]
c = COc1cc(F)ccc1-c1cc(Nc2cc(CS(=N)(=O)CCO)ccn2)ncc1F (racemic)
In this exercise, place the 3 compounds in ascending sequence of their recorded pIC50. // respond by listing labels in the order requested
c, b, a

I = CCOc1cc(F)ccc1-c1cc(Nc2cc(CS(C)(=N)=O)cc(F)n2)ncc1F (racemic) [Example 26]
II = COc1cc(F)ccc1-c1cc(Nc2cc(CS(C)(=O)=NC(=O)C(F)(F)F)cc(F)n2)ncc1F (racemic)
III = COc1cc(CS(C)(=N)=O)cc(Nc2cc(-c3ccc(F)cc3OC)c(F)cn2)n1 (racemic)
# rank_down: sort by pIC50, max first // respond by listing labels in the order requested
III, II, I
(III: 7.48, II: 7.17, I: 6.82)

P = COc1cc(F)ccc1-c1cc(Nc2cc(CS(C)(=N)=O)cc(C)n2)ncc1F (single isomer, unassigned; (+)) [Example 32]
Q = CCOC(=O)N=S(C)(=O)Cc1ccnc(Nc2cc(-c3ccc(F)cc3OC)c(F)cn2)c1 (racemic)
Just curious, which one has the larger pIC50 reading, P or Q ? Kindly give the label for the entry you pick.
P

1 = COc1cc(F)ccc1-c1cc(Nc2cc(CS(C)(=O)=NC#N)ccn2)ncc1F (single isomer, unassigned)
2 = COc1cc(F)ccc1-c1cc(Nc2cc(CS(C)(=N)=O)ccn2)ncc1F (racemic)
Just curious, which one has the larger pIC50 reading, 1 or 2 ? Kindly give the label for the entry you pick.
1
(1: 7.20, 2: 6.96)

* * *

assay: Caco-2 permeation assay; format: in vitro ADME, human; conditions: human, Caco-2, pH 7.2, Caco-2, 2 μM test compound, basolateral to apical; read-out: Papp B-A (Mari)
READOUT_TYPE: Papp B→A at 2 h, 2 µM (×10⁻⁶ cm/s)

{"MOLECULE": "COc1cc(F)ccc1-c1cc(Nc2cc(CS(C)(=N)=O)cc(F)n2)ncc1F (racemic)", "UNIT_ANNOTATION": "×10⁻⁶ cm/s", "Papp B→A at 2 h, 2 µM": 13.5}
{"MOLECULE": "COc1cc(F)ccc1-c1cc(Nc2cc(CS(=N)(=O)CCO)ccn2)ncc1F (racemic)", "UNIT_ANNOTATION": "×10⁻⁶ cm/s", "Papp B→A at 2 h, 2 µM": 24.6}
{"MOLECULE": "CCS(=N)(=O)Cc1ccnc(Nc2cc(-c3ccc(F)cc3OC)c(F)cn2)c1 (racemic)", "UNIT_ANNOTATION": "×10⁻⁶ cm/s", "Papp B→A at 2 h, 2 µM": 17.2}
{"MOLECULE": "COc1cc(F)ccc1-c1cc(Nc2cc(CS(C)(=N)=O)ccn2)ncc1F (single isomer, unassigned; (+)) [Example 2]", "UNIT_ANNOTATION": "×10⁻⁶ cm/s", "Papp B→A at 2 h, 2 µM": 18.6}
{"MOLECULE": "COc1cc(F)ccc1-c1cc(Nc2cc(CS(C)(=N)=O)cc(C)n2)ncc1F (racemic)", "UNIT_ANNOTATION": "×10⁻⁶ cm/s", "Papp B→A at 2 h, 2 µM": 14.9}

A = COc1cc(F)ccc1-c1cc(Nc2cc(CS(C)(=N)=O)cc(C(F)(F)F)n2)ncc1F (racemic) [Example 21]
B = COc1cc(F)ccc1-c1cc(Nc2cc(CS(C)(=N)=O)ccn2)ncc1F (racemic) [Example 1]
C = COc1cc(F)ccc1-c1cc(Nc2cc(CS(C)(=N)=O)cc(C(F)(F)F)n2)ncc1F (single isomer, unassigned; (+)) [Example 22]
In this exercise, place the 3 molecules in ascending sequence of their recorded Papp B→A at 2 h, 2 µM. // respond by listing labels in the order requested
A, C, B
(A: 3.3 ×10⁻⁶ cm/s, C: 5.3 ×10⁻⁶ cm/s, B: 18 ×10⁻⁶ cm/s)
